Tested on: MS2 coat protein
Assay: apparent KD of MS2 coat protein, switch OFF state (with FMN for OFF switches, without FMN for ON switches); designed switch direction (-1 OFF switch, 1 ON switch): 1; higher = weaker reporter binding
Settings: FMN input: 0 or 200 uM; Eterna round: R93 (includes R88 designs)
Parameter apparent KD of MS2 coat protein: see the listing below.
Field: numeric (nM). Do not append units.

| sequence_chain | result_number |
| --- | --- |
| AAAAAACAUGAGGAUCACCCAUGUCGAAAGACGUGAGGAUAUGUACAGACUUCGGUCUGUACAGAAGGCACGAAAA [SS1 - 1038] | 60.4 |
| GAAAAACAUGAGGAUCACCCAUGUAGAAAUAUGGGAGGAUAUACAAAGACGAGAGUCAAAGUAGAAGGCCUAAAAG [Mat - Same State 1 - Eli mod - D9] | 86.7 |
| GGAGCCGGCACCGAGGAUAUUCAUAUUAAAACAUGAGGAUCACCCAUGUAGGCCAGAAGGCCUUGGGAGAAGGCGGAUCGGCUCG [Xeonanis] | 481 |
| GAAAAACAUGAGGAUCACCCAUGUGAGAAUAUGGAAGGAUAUACAAAGACGAAAGUCAAAGUAGAAGGUCUAAAAG [Mat - Same State 1 - Eli mod - D15] | 20.5 |
| AAUAUACAUGAGGAUCACCCAUGUGAAAAUAUGGGAGGAUAUCGGAAAAAAAAAAAAAAACGAGAAGGCCCAAAAA [SS! 1 MT 13] | 119 |
| GAGGACAUAGGAUAGGAUAUAUGAAUAAUUACAUGAGGAUCACCCAUGUCCAUUUAUAUGGGAACAUAGAAGGGUUGUAGUUAUC [SameState2 Malc#34] | 683 |
| AGAAAACAUGAGGAUCACCCAUGUUAGUGUCAUUAAGGAUAUAGGCUUAAGAAUCUGAGACUAGAAGGUGGUGCGC [Orbeus] | 30.8 |
| AAUAAACAUGAGGAUCACCCAUGUUUUAAUAGUUGAGGAUAUAAGGGUGAAAAUAGCAUAUUAGAAGGCGAGUGUA [SameState1 Malc#14] | 31.7 |

Exercise: Name the recorded apparent KD of MS2 coat protein of the item AAAGAAGAAAGUCAGGAUAUGGAUGGGUAAACAUGAGGAUCACCCAUGUAUAAGAAAGAAAGAAACCAGAAGGGACAAAAGAAAA [Artaxerxes III] in your answer.
Solution: 135

Exercise: Name the recorded apparent KD of MS2 coat protein of the item AAUACACAUGGUCAGGAUAUCGCAGCUAGGACAUGAGGAUCACCCAUGUCGCAUGUAACUGUAACCGAGAAGGGACAGGGUGAUC [JR_SS002_Sub411] in your answer.
Solution: 92.6

Exercise: Name the recorded apparent KD of MS2 coat protein of the item AAGAAACAUGAGGAUCACCCAUGUGAGAAAAACACAGGAUAUGCAAAAGAAAGAAAGAAAGCAGAAGGGUGAAGAA [Mat - Same State 1 - Tesla mod - 52] in your answer.
Solution: 74

Exercise: Name the recorded apparent KD of MS2 coat protein of the item AAAAGACAUGAGGAUCACCCAUGUCAAAACGUAGGAGGAUAUGUAUGGAAAACAUGCUGUACAGAAGGCCUGUGUC [SS1 - 28] in your answer.
Solution: 17

Exercise: Name the recorded apparent KD of MS2 coat protein of the item AAAAAAAAAACUCAGGAUAUAGAUUGUUGAACAUGAGGAUCACCCAUGUAGUGAAAAGCGAAAAACUAGAAGGGAGGAAAAAAAAA [SameState2-03] in your answer.
Solution: 63.3

---

System: K4 kissing-loop RNA reporter;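 further: bound reporter read as fluorescence of individual clusters on recovered sequencing chips by microscopy, with normalized cluster intensities fitted with a binding model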
Assay: apparent KD of K4 kissing-loop reporter; higher = weaker reporter binding
Settings: Eterna round: R107; input ligand: none
Parameter apparent KD of K4 kissing-loop reporter: see the listing below.
Field: numeric (nM). Do not append units.

| sequence_chain | apparent KD of K4 kissing-loop reporter (nM) |
| --- | --- |
| AAACGUUGGUCUGAUACCAGCUGAUCGGAAACGAUCUUGCUGGAGUGAUGUUCCAGGAAAAGCCCUUGGCAGCAGACCGACGAAA [MAT - Same State Theophlline B - Mod of Eli - D25] | 1510 |
| CGCGCCCAGCCGGAUACCAGUGACCCGCUGGGAACCGCGGGCCCAGAGUGAUGUUCGGGACACCCUUGGCAGCCGCCUGGGCGGC [#2 Same State - Theophylline B Attempt #9 (HarryS)] | 999 |
| UUUGAAAUGACUGAUACCAGUGAAAAUAUAUGUAGUGAUGUUAUAUACUAAUUUAAUAAGCGCCCUUGGCAGCAGUAUGAAUUAU [AstrosExc-theB#16] | 927 |
| GGCAGUGAUGUUGCCAGUGGCAGAUGAGAAGGAGCGUGGUGAGACACAGGUAGGUCGCUCAUUGAAAUUGCUGUCACUAAAAUGC [#5] | 266 |

Exercise: Name the recorded apparent KD of K4 kissing-loop reporter of the item CCAACAACGAGUGAUGUUCGUUGAUCUGAAGGAGCGUCAAUAAUGACAGGUAGGUCGCAGAUAAUUGGAUAUAGGGCAAUAGCUC [Same State Arginine A GF13] in your answer.
Solution: 125

Exercise: Name the recorded apparent KD of K4 kissing-loop reporter of the item CCAGGACGAUGAGGAGGAUGAAUUACUGAAGGAGCGCAUAUGGUUGCAGGUAGGUCGCGGUGAACAAGUAUAGUGAUGUUAUACC [SSArgA.T] in your answer.
Solution: 368

Exercise: Name the recorded apparent KD of K4 kissing-loop reporter of the item CGCAAGCAGCCAGUGAUGUUGGCCGCCUUGCGAGGACCGGUACGGCCGCCACUCGAAGGCGGCUACUGAUAAACCGUCUAACGGA [KL-XTryp-A9] in your answer.
Solution: 105

Exercise: Name the recorded apparent KD of K4 kissing-loop reporter of the item UGAUACCAGACGGCCGCCACUUCCGUAAGUCAAAGACUUGCCAAGGGAAUCGUCCAGUGAUGUUGGAGGACCGGGUCUGGUAUCU [FiskerMod 5 - Jieux - Exclusion - Tryptophan B] in your answer.
Solution: 725

Exercise: Name the recorded apparent KD of K4 kissing-loop reporter of the item AGCUCAGAGUGACUCGAUAAGAGUCACAAACGAGGACCGGUACGGCCGCCACUCGAAAUAACGAGAGUGAUGUUCUCGCUGAGCA [#SwitchBubble 1 #StaticStem #K4Late] in your answer.
Solution: 1000

Exercise: Name the recorded apparent KD of K4 kissing-loop reporter of the item GGUCCGCACAUGAGUGAUGUUCAUGUAGAUACCAGUAUCGAAAGAUACCCUUGGCAGCUACGGCACGGACCGGCGGGAAACCGCC in your answer.
Solution: 194

Exercise: Name the recorded apparent KD of K4 kissing-loop reporter of the item UUUAUUAAGACGGCCGCCACUGAAUUAGAGUGAUGUUCUAAAAUUUUUAAUUUUUUUUUUUUCAGCAGGACCGGGUCAAUUAUUA [JR_SSTryptoB_Sub012] in your answer.
Solution: 116

---

Tested on: MS2 coat protein
Test: apparent KD of MS2 coat protein; higher = weaker reporter binding
Settings: Eterna round: R107; input ligand: tryptophan 2.4 mM
Parameter apparent KD of MS2 coat protein: see the listing below.
Field: numeric (nM). Do not append units.

// worked examples, apparent KD of MS2 coat protein included
| sequence_chain | result_number |
| --- | --- |
| AAGCUGCCAAGAAGGUGAUCCAAAUGUGAUACCAGCUAGGAAACUAGCCCUUGGCAGCACAUGAGGAUCACCCAUGUAAUAAUAA [(T)'-(M)'-(T1)-(T2)-(M1)-(M2)_Design1_2/19/17] | 48.3 |
| UCAUAUUAGAUAGAUGUAAGGUAUCAUGAUACCAGUAGAUAAUUAUACCCUUGGCAGCAUAACAUGAGGAUCACCCAUGUACAUG [Aa] | 17.9 |
| UGUAUGUGAUCUGAUACCAGAGUGACGCGAAAGCGAACCUGAGGAUCACCCUGGUAAUAACUCCCUUGGCAGCAGAUCGCAUACU | 69.8 |
| AUACAUGAGGAUCACCCAUGUCAUACAGAAGGAGCGUCACAUAAGACAGGUAGGUCGCUGAUAUAUACGUCACGAAUAGUGACGA [JR_SSArginiA_Sub017] | 18.6 |
| CCUAUGCAGUCGGCCGCCACUGAGUCCUCAAUAAUAAAUUAUUAUACAUGAGGAUCACCCAUGUACAGGACCGGGACUGUAUAGG [Ex Tryptophan B 14] | 214 |

Proceed to the following item.
Exercise: Name the recorded apparent KD of MS2 coat protein of the item UUUCAGUGGACGGCCGCCACUGAAGUCGAUACAAUCAUGUAGAACAUGAGGAUCACCCAUGUAGUCAGGACCGGGUCCAAUGACU [Tryp B SS t3] in your answer.
Solution: 20.5
